Details: in isopropanol, 308.2 K
observed.property: solubility (mole fraction)

>>> result("CC[C@H](C)[C@H]1O[C@]2(CC[C@@H]1C)C[C@@H]1C[C@@H](C/C=C(\\C)[C@@H](O[C@H]3C[C@H](OC)[C@@H](O[C@H]4C[C@H](OC)[C@@H](O)[C@H](C)O4)[C@H](C)O3)[C@@H](C)/C=C/C=C3\\CO[C@@H]4[C@H](O)C(C)=C[C@@H](C(=O)O1)[C@]34O)O2")
0.0967

* * *

Details: in water, 303.2 K
observed.property: solubility (mole fraction)

>>> result("CC[C@H](C)[C@H]1O[C@]2(CC[C@@H]1C)C[C@@H]1C[C@@H](C/C=C(\\C)[C@@H](O[C@H]3C[C@H](OC)[C@@H](O[C@H]4C[C@H](OC)[C@@H](O)[C@H](C)O4)[C@H](C)O3)[C@@H](C)/C=C/C=C3\\CO[C@@H]4[C@H](O)C(C)=C[C@@H](C(=O)O1)[C@]34O)O2")
"6.1e-06"
